molecular target: Tubulin (Homo sapiens) (UniProt P68371+Q9H4B7+P0DPH7+P68366+Q13509+Q71U36+P04350+Q3ZCM7+P07437+P68363+Q9BQE3+Q6PEY2+Q13885+Q9BVA1+Q9BUF5); assay: Stabilization of microtubules in human QBI293 cells assessed as fold change in acetylated tubulin levels at 10 uM after 4 hrs by ELISA relative to cevipabulin; type: cell-based
Returns: string. Value is fulfilled if measured fold change (FC) is below 0.2, and not fulfilled if it is greater than or equal to it.

Task: Here's an entry: C[C@H](Nc1c(-c2c(F)cc(C#N)cc2F)c(Cl)nc2ncnn12)C(F)(F)F . Is its fold change (FC) below 0.2?
Output: not fulfilled

Task: Here's an entry: Fc1cc(F)c(-c2c(Cl)nc3ncnn3c2Nc2ccccc2)c(F)c1 . Is its fold change (FC) below 0.2?
Output: fulfilled

Task: Here's an entry: C[C@H](Nc1c(-c2c(F)cccc2F)c(Cl)nc2ncnn12)C(F)(F)F . Is its fold change (FC) below 0.2?
Output: not fulfilled

Task: Here's an entry: C[C@H](Nc1c(-c2cc(F)ccc2F)c(Cl)nc2ncnn12)C(F)(F)F . Is its fold change (FC) below 0.2?
Output: not fulfilled

Task: Here's an entry: Fc1cc(F)c(-c2c(Cl)nc3ncnn3c2N2CCC2)c(F)c1 . Is its fold change (FC) below 0.2?
Output: not fulfilled

Task: Here's an entry: C[C@H](Nc1c(-c2c(F)cc([S+](C)[O-])cc2F)c(Cl)nc2ncnn12)C(F)(F)F (stereo not given in full) . Is its fold change (FC) below 0.2?
Output: not fulfilled

Task: Here's an entry: C[C@@H](Nc1c(-c2ccc(C#N)cc2F)c(Cl)nc2ncnn12)C(C)(C)C . Is its fold change (FC) below 0.2?
Output: not fulfilled

Task: Here's an entry: CO[C@H]1C[C@H]2CC[C@@H](C1)N2c1c(-c2c(F)cc(C#N)cc2F)c(Cl)nc2ncnn12 . Is its fold change (FC) below 0.2?
Output: not fulfilled

Task: Here's an entry: C[C@H](Nc1c(-c2ccc(F)c(F)c2)c(Cl)nc2ncnn12)C(F)(F)F . Is its fold change (FC) below 0.2?
Output: fulfilled

Task: Here's an entry: Nc1c(-c2c(F)cc(F)cc2F)c(Cl)nc2ncnn12 . Is its fold change (FC) below 0.2?
Output: fulfilled
